Data origin, for the record: patent US9399646B2

target: ER-α in MCF-7 cells (Homo sapiens); assay: Breast cancer cell ER-α in cell western assay (SP1); format: cell-based; set-up: endogenous in cells; host or cells: MCF-7; conditions: SP1 antibody, 4 or 24 hr post compound addition, read-out: ER-α In Cell Western Assay (SP1) IC50
Sequence (P03372 whole entry): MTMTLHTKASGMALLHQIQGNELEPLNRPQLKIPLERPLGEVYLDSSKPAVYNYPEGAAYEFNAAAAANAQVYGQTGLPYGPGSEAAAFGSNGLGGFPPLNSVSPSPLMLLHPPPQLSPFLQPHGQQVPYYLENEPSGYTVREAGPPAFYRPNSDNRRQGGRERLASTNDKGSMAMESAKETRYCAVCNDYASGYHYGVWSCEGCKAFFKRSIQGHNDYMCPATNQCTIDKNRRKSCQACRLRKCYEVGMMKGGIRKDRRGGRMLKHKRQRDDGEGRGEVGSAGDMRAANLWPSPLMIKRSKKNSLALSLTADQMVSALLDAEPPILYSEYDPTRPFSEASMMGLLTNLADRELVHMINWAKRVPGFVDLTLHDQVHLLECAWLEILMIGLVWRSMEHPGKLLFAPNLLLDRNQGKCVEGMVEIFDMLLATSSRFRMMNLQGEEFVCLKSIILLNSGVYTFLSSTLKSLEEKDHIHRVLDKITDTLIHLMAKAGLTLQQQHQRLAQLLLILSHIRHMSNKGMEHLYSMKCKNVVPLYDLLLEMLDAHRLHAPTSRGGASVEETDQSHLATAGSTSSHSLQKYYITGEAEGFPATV
DC50 for assorted compounds

CC/C(=C(/c1ccc(/C=C/C(=O)O)cc1)c1ccc2[nH]ncc2c1)c1cccc(Oc2ccc(S(C)(=O)=O)cc2)c1
≤ 100 nM
CC/C(=C(/c1ccc(/C=C/C(=O)O)cc1)c1ccc2scnc2c1)c1cscc1C
≤ 100 nM

What DC50 value was documented for this compound, CC/C(=C(/c1ccc(/C=C/C(=O)O)cc1)c1coc2c(OC)cccc12)c1ccccc1 ? ≤ 100 nM

What DC50 value was documented for this compound, CC/C(=C(/c1ccc(/C=C/C(=O)O)cc1)c1ccc2[nH]ncc2c1)c1cnsc1 ? > 100 nM

What DC50 value was documented for this compound, CC/C(=C(/c1ccc(/C=C/C(=O)O)cc1)c1ccc2[nH]c(=O)ccc2c1)c1ccccc1 ? > 100 nM
